Values from patent US20080213836

target-or-test-system: T1, Boc-Glu(OBzl)-Ala-Arg-MCA
T1 chain: EAR
Measured Km by item

| protein | display-unit | Km |
| --- | --- | --- |
| Bovine EP serine protease (New England Biolabs) (protein) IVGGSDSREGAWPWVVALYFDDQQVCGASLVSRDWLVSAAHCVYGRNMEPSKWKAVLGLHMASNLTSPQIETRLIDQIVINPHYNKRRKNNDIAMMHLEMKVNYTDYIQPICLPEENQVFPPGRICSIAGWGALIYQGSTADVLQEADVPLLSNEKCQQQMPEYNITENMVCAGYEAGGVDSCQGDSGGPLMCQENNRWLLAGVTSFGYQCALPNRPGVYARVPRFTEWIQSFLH | µM | 400 |
| Medaka EP-1 serine protease domain mutant E173A (protein) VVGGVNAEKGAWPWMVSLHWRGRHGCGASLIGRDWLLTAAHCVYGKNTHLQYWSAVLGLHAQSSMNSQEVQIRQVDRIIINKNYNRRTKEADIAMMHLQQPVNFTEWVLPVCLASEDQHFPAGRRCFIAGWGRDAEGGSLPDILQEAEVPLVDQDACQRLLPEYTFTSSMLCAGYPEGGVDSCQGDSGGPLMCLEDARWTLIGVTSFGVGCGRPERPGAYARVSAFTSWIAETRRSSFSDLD | µM | 1000 |
| porcine EP serine protease domain (Ile800 to His1034) (protein) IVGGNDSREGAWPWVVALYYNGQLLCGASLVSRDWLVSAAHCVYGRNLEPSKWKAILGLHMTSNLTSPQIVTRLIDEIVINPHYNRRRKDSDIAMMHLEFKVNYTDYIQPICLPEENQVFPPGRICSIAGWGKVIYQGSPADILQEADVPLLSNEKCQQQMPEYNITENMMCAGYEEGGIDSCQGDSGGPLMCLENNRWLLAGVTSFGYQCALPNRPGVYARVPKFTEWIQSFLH | µM | 300 |
